Recorded IC50 for the following molecules
target: ShHTL7 L161M (Striga hermonthica, UniProt A0A0M3PNA2, L161M); experiment: YLG competitive inhibition, ShHTL7 mutant L161M
Sequence (A0A0M3PNA2 whole entry L161M): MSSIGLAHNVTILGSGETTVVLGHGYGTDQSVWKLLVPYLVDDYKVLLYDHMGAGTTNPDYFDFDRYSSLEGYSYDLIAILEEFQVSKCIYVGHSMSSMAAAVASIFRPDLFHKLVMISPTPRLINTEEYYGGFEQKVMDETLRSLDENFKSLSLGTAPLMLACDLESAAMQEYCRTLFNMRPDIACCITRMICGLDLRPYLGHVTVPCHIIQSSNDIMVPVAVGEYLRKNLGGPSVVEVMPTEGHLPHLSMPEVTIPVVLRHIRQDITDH
State just the number; it will be interpreted in µM.

molecule="CC1=C[C@H](OC(=O)N2CCN(C(=O)COc3ccc(Br)cc3C)CC2)OC1=O [(S)-4a]" recorded_result=0.666

Here's the next entry for you.
Query: Request - read-out IC50 | tested on ShHTL7 L161M (Striga hermonthica, UniProt A0A0M3PNA2, L161M) | molecule CC1=C[C@@H](OC(=O)N2CCN(C(=O)COc3ccc(Br)cc3C)CC2)OC1=O [(R)-4a]
Reply: 34.3

* * *

Recorded relative percentage of hydrolysis by ShHTL7, source data average for the following compounds
target: ShHTL7 (Striga hermonthica, UniProt A0A0M3PNA2); experiment: ShHTL7-hydrolysis reaction analysis (HPLC); assay type: biochemical; details: 10 μM compound, 30 °C, 30 min; Supplementary Figs. 11, 20a, 24a
Sequence (A0A0M3PNA2 entry or part of it): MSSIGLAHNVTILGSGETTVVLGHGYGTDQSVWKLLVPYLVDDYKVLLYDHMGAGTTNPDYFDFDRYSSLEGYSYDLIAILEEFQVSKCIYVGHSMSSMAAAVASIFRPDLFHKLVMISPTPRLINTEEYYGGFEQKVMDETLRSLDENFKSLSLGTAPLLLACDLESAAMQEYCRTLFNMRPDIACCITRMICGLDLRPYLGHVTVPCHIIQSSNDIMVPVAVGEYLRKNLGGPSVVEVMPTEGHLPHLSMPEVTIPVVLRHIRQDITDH
Please provide the amount together with its unit, number first.

Guide cases for relative percentage of hydrolysis by ShHTL7, source data average, answers given:
compound="CC1=C[C@H](OC(=O)N2CCN(C(=O)COc3ccc(Br)cc3C)CC2)OC1=O [(S)-4a]" recorded_result=40.0583%
compound="CC1=CC(OC(=O)N2CCN(C(=O)COc3ccc(Br)cc3C)CC2)OC1=O (stereo not shown)" recorded_result=36.438%
compound="CC1=CC(OC(=O)N2CCN(C(=O)COc3ccc(Br)cc3C)CC2)N(C)C1=O (stereo not shown)" recorded_result=12.2513%

Here's the next entry for you.
Query: Request - read-out relative percentage of hydrolysis by ShHTL7, source data average | tested on ShHTL7 (Striga hermonthica, UniProt A0A0M3PNA2) | compound CC1=C[C@H](O/C=C2/C(=O)O[C@@H]3c4ccccc4C[C@H]23)OC1=O (racemic) [rac-GR24, reference compound]
Reply: 51.9391%

* * *

target: ShHTL7 (Striga hermonthica); assay: Competitive inhibition of ShHTL7 with Yoshimulactone Green (YLG) as substrate; assay type: biochemical; details: IC50, competitive ShHTL7 inhibition (YLG), source data average, wild-type ShHTL7; average of 3; source data of Fig. 2a,b, Supplementary Figs. 8a, 9a, 20b
Recorded IC50 for the following molecules
State just the number; it will be interpreted in µM.

molecule="O=C(COc1c(F)c(F)c(F)c(F)c1F)N1CCN(CC2CC3C=CC2C3)CC1 (centres unmarked)" recorded_result=2.08

Query: # get_value(readout='IC50', item= Cc1cc(Br)ccc1OCC(=O)N1CCN(CC2CC3C=CC2C3)CC1 (centres unmarked) )
Reply: 6.11

* * *

target: ShHTL7 (Striga hermonthica); assay: Competitive inhibition of ShHTL7 with Yoshimulactone Green (YLG) as substrate; assay type: biochemical; conditions: YLG used as the substrate; means ± SD, n = 3; read-out: IC50 (Supplementary Table 1)
Measured attribute: log10(IC50) (log10 of the value in µM)
Scale: log10; quantity: IC50; unit before log: µM

Guide cases for log10(IC50), answers given:
compound="O=C(COc1ccc(Cl)cc1)N1CCN(CC2CC3C=CC2C3)CC1 (centres unmarked)" recorded_result=1.34
compound="Cc1ccccc1OCC(=O)N1CCN(CC2CC3C=CC2C3)CC1 (centres unmarked)" recorded_result=0.96
compound="Cc1ccc(OCC(=O)N2CCN(C(=O)C3CC4C=CC3C4)CC2)cc1 (centres unmarked)" recorded_result=1.55
compound="Cc1cc([N+](=O)[O-])ccc1OCC(=O)N1CCN(CC2CC3C=CC2C3)CC1 (centres unmarked)" recorded_result=1.00

Here's the next entry for you.
Query: # get_value(readout='log10(IC50)', item= CC1=C[C@H](O/C=C2/C(=O)O[C@@H]3c4ccccc4C[C@H]23)OC1=O (racemic) [rac-GR24, reference compound] )
Reply: -0.14

// provenance: paper PMC9271048
